Molecular target: T1, monovalent hVISTA-ECD with polyhistidine tail (SEQ ID NO: 325) (human, UniProt Q9H7M9 33-193)
T1 construct: also called hVISTA-ECD 6-His tag; human VISTA
T1 sequence (Q9H7M9 other isoform, or with tags, fused parts or gaps limits assumed): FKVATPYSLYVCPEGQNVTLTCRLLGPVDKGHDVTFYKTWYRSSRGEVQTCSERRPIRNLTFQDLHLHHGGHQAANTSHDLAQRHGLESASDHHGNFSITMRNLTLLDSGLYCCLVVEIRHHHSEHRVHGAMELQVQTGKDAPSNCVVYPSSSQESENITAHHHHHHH
Assay: SPR, mAb captured on Protein A chip, hVISTA injected, PBST pH 7.4, 37 C
Label criterion met when koff is at or above 0.02 s⁻¹; anything below gets criterion not met.

[[record]]
binder = "P1-077867 (P1-068748 H32Y) (antibody, V domains shown, Reversion mutant of P1-068748 (Kabat names); captured on a Protein A chip) VH: QVQLVESGGGVVQPGRSLRLSCAASGFTFSHYAMHWVRQAPGKGLEWVAIIWYDGSNDDYADSVKGRFTISRDNSKNTLYLQMNSLRAEDTAVYYCARDSGFYDSYYFDYWGQGTLVTVSS VL: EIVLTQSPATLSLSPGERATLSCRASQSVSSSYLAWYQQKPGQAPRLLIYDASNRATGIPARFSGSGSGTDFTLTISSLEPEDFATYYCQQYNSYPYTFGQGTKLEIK"
answer_label = "criterion met"

[[record]]
binder = "P1-068748 (antibody, V domains shown, captured on a Protein A chip) VH: QVQLVESGGGVVQPGRSLRLSCAASGFTFSHHAMHWVRQAPGKGLEWVAIIWYDGSNDDYADSVKGRFTISRDNSKNTLYLQMNSLRAEDTAVYYCARDSGFYDSYYFDYWGQGTLVTVSS VL: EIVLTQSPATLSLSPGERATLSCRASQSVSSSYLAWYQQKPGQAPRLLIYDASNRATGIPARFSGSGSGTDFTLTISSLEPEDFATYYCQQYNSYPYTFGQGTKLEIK"
answer_label = "criterion met"

[[record]]
binder = "P1-077875 (P1-068748 H31S H32Y) (antibody, V domains shown, Reversion mutant of P1-068748 (Kabat names); captured on a Protein A chip) VH: QVQLVESGGGVVQPGRSLRLSCAASGFTFSSYAMHWVRQAPGKGLEWVAIIWYDGSNDDYADSVKGRFTISRDNSKNTLYLQMNSLRAEDTAVYYCARDSGFYDSYYFDYWGQGTLVTVSS VL: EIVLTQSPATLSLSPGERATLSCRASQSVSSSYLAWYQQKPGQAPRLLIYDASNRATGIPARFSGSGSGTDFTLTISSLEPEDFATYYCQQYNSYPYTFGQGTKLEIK"
answer_label = "criterion met"

[[record]]
binder = "P1-077877 (P1-068748 H32Y D57K) (antibody, V domains shown, Reversion mutant of P1-068748 (Kabat names); captured on a Protein A chip) VH: QVQLVESGGGVVQPGRSLRLSCAASGFTFSHYAMHWVRQAPGKGLEWVAIIWYDGSNKDYADSVKGRFTISRDNSKNTLYLQMNSLRAEDTAVYYCARDSGFYDSYYFDYWGQGTLVTVSS VL: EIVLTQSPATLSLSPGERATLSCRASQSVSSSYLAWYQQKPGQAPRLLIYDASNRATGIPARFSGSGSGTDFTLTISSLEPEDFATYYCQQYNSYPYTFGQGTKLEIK"
answer_label = "criterion met"

[[record]]
binder = "P1-077869 (P1-068748 D57K) (antibody, V domains shown, Reversion mutant of P1-068748 (Kabat names); captured on a Protein A chip) VH: QVQLVESGGGVVQPGRSLRLSCAASGFTFSHHAMHWVRQAPGKGLEWVAIIWYDGSNKDYADSVKGRFTISRDNSKNTLYLQMNSLRAEDTAVYYCARDSGFYDSYYFDYWGQGTLVTVSS VL: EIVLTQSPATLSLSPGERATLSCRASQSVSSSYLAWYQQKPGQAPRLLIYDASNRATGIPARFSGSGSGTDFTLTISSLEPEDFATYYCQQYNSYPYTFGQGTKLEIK"
answer_label = "criterion met"

[[record]]
binder = "P1-077881 (P1-068748 D58Y D100S) (antibody, V domains shown, Reversion mutant of P1-068748 (Kabat names); captured on a Protein A chip) VH: QVQLVESGGGVVQPGRSLRLSCAASGFTFSHHAMHWVRQAPGKGLEWVAIIWYDGSNDYYADSVKGRFTISRDNSKNTLYLQMNSLRAEDTAVYYCARDSGFYSSYYFDYWGQGTLVTVSS VL: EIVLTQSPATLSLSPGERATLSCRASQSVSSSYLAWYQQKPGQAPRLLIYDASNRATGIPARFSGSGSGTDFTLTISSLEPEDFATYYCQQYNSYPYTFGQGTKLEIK"
answer_label = "criterion not met"

[[record]]
binder = "P1-077865 (P1-068748 H31S) (antibody, V domains shown, Reversion mutant of P1-068748 (Kabat names); captured on a Protein A chip) VH: QVQLVESGGGVVQPGRSLRLSCAASGFTFSSHAMHWVRQAPGKGLEWVAIIWYDGSNDDYADSVKGRFTISRDNSKNTLYLQMNSLRAEDTAVYYCARDSGFYDSYYFDYWGQGTLVTVSS VL: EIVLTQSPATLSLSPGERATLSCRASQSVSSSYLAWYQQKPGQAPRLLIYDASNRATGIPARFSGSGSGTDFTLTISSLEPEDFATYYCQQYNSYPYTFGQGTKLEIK"
answer_label = "criterion met"

[[record]]
binder = "P1-077891 (P1-068748 H32Y D100S) (antibody, V domains shown, Reversion mutant of P1-068748 (Kabat names); captured on a Protein A chip) VH: QVQLVESGGGVVQPGRSLRLSCAASGFTFSHYAMHWVRQAPGKGLEWVAIIWYDGSNDDYADSVKGRFTISRDNSKNTLYLQMNSLRAEDTAVYYCARDSGFYSSYYFDYWGQGTLVTVSS VL: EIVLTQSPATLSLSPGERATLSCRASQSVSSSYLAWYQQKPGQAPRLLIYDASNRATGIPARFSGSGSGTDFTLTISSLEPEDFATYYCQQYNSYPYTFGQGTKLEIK"
answer_label = "criterion not met"

[[record]]
binder = "P1-077889 (P1-068748 H32Y D58Y) (antibody, V domains shown, Reversion mutant of P1-068748 (Kabat names); captured on a Protein A chip) VH: QVQLVESGGGVVQPGRSLRLSCAASGFTFSHYAMHWVRQAPGKGLEWVAIIWYDGSNDYYADSVKGRFTISRDNSKNTLYLQMNSLRAEDTAVYYCARDSGFYDSYYFDYWGQGTLVTVSS VL: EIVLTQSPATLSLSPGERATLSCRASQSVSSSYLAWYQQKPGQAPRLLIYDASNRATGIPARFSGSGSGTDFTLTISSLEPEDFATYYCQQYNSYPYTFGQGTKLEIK"
answer_label = "criterion met"

[[record]]
binder = "P1-077873 (P1-068748 D100S) (antibody, V domains shown, Reversion mutant of P1-068748 (Kabat names); captured on a Protein A chip) VH: QVQLVESGGGVVQPGRSLRLSCAASGFTFSHHAMHWVRQAPGKGLEWVAIIWYDGSNDDYADSVKGRFTISRDNSKNTLYLQMNSLRAEDTAVYYCARDSGFYSSYYFDYWGQGTLVTVSS VL: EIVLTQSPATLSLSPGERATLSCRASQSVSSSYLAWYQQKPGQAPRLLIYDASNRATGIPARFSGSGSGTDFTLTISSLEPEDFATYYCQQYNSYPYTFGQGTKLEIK"
answer_label = "criterion not met"

